Origin of measurements: paper PMC6010752

Protein target, amino acids: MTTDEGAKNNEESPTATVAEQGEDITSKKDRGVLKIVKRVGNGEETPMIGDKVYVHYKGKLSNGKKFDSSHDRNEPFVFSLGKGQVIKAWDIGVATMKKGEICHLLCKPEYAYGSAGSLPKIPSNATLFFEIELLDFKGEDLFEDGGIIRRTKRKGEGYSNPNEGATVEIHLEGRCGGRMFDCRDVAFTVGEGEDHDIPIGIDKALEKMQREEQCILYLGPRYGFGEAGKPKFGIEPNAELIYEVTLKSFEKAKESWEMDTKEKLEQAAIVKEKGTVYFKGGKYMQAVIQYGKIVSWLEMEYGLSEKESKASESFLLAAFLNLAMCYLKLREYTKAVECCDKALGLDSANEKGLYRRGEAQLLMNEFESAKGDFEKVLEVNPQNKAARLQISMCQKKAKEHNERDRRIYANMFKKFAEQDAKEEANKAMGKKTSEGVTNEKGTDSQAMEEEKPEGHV
MEASURE NAME: IC50 (µM)
Expressed in µM, but write only the number.

Input: Report IC50 for COCc1cc(O)n2c(n1)nc1ccccc12
Output: 150
